- ASSAY_REMARKS: In vivo rat pharmacokinetic studies
- STUDY_CONDITIONS: 40 mg/kg; rat, PO 40 mpk, 8 h, liver/plasma; read-out: L/P Ratio
MEASURED_METRIC: Kp at 8 h
Reply: number alone, nothing else.

Sample Cn1nc(C(=O)NC2CCN(CCN3CCCC3)CC2)c2ccc(N3CCCCCC3)nc21 ; Kp at 8 h observed: 582

###

- ASSAY_REMARKS: Caco-2 permeability testing
- Assay type: in vitro ADME, human
- STUDY_CONDITIONS: human, pH 7.4; Caco-2, B-A, 90 min; read-out: Efflux (first figure of Efflux/permeability), Papp (B-A)
MEASURED_METRIC: Papp B→A at 90 min, 10 µM (×10⁻⁶ cm/s)
Your answer is read as ×10⁻⁶ cm/s, so omit the unit and give the number.

Notebook: O=C(NC1CCNCC1)c1nn(Cc2ccccc2Cl)c2nc(N3CCCCCC3)ccc12 , Papp B→A at 90 min, 10 µM read as 0.4
